The reported measurements were obtained from PubChem BioAssay (NCATS).

Test: Drug repurposing screens with cells derived from glioblastoma tumor samples (AID 1345199); note: % is set by controls: 0 for no effect and ±100 for the full control effect
Details: GBM patient neurospheres viability, ATP luminescence, 48 h; at 21.2 µM (top of the series); tumour line D
Records with an inconclusive call do not appear.
EXPERIMENTAL ENDPOINT: activity, negative = cell killing (%)
One number for each entry, in %.

Below are worked cases with known answers.
CCCOc1cc(N)ccc1C(=O)OCCN(CC)CC : -24.1
CN[C@@H]1[C@@H](O[C@H]2O[C@H](CO)[C@@H](N)[C@H](O)[C@H]2O)O[C@H]2C[C@@H](N)[C@@H](O[C@H]3[C@H](O)[C@@H](O)[C@H](N)C[C@@H]3N)O[C@@H]2[C@@H]1O : 2.67
NC[C@H]1O[C@H](O[C@H]2[C@H](O)[C@@H](O[C@H]3O[C@H](CO)[C@@H](O)[C@H](N)[C@H]3O)[C@H](N)C[C@@H]2N)[C@H](O)[C@@H](O)[C@@H]1O : 0.603

Report activity, negative = cell killing for every entry below.
1. C=CC[N@@+]12CC[C@@]34c5ccccc5N5/C=C6/[C@H]7C[C@H]8[C@@]9(CC[N@@+]8(CC=C)C/C7=C/CO)c7ccccc7N(/C=C(/[C@@H](C[C@@H]31)/C(=C\CO)C2)[C@H]54)[C@@H]69
2. NC(=O)c1cc[n+](CC2=C(C(=O)O)N3C(=O)[C@@H](NC(=O)C(c4ccccc4)S(=O)(=O)[O-])[C@H]3SC2)cc1 (stereo partly specified)
3. COc1c(O[C@@H]2O[C@H](CO)[C@@H](O)[C@H](O)[C@H]2O)cc2c(c1OC)-c1ccc(SC)c(=O)cc1[C@@H](NC(C)=O)CC2

*A*
1. 3.96
2. -7.97
3. -5.86
